biological target: T1, human PD-L1 expressed on CHOK1 cells (PDL1-CHOK1 cell line) (human, UniProt Q9NZQ7 19-290); test: FACS receptor blocking: PDL1-CHOK1 cells, competitor Bio-PD1 (30 µg/ml)
T1 construct: whole, on cells; also called PDL1-CHOK1 cells; PD-L1 expressed on mammalian cells
T1 sequence (Q9NZQ7 19-290): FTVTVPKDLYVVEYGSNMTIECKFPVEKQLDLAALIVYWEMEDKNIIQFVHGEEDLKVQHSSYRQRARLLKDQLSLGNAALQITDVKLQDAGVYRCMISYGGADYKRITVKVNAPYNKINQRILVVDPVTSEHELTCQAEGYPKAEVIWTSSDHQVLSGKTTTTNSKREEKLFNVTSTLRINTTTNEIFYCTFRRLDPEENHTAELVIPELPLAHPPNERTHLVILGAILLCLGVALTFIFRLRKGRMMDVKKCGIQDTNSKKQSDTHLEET
// label = TRUE if TOP is not less than 90%, otherwise FALSE

Q: Item Hu1210-14 (antibody, V domains shown) VH: EVQLLESGGGLVQPGGSLRLSCAASGFTFSSYDMSWVRQAPGKSLEWVATISDGGGYIYYSDSVKGRFTISRDNSKNTLYLQMNSLRAEDTAVYICAREFGKRYALDYWGQGTTVTVSS VL: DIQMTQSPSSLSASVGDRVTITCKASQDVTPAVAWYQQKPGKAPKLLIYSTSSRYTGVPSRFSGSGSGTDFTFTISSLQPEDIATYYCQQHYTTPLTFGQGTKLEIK with TOP of 90% or above?
Ans: FALSE

Q: Item Hu1210-22 (antibody, V domains shown) VH: EVQLVESGGGLVQPGGSLRLSCAASGFTFSSYDMSWVRQAPGKSLEWVATISDGGGYIYYSDSVKGRFTISRDNAKNSLYLQMNSLRDEDTAVYICAREFGKRYALDYWGQGTTVTVSS VL: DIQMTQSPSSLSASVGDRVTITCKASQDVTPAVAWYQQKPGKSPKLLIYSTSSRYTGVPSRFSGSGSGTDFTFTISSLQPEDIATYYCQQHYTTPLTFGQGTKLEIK with TOP of 90% or above?
Ans: FALSE

Q: Item Hu1210-31 (antibody, V domains shown) VH: EVQLVESGGGLVQPGGSLRLSCAASGFTFSSYDMSWVRQAPGKGLEWVATISDGGGYIYYSDSVKGRFTISRDNAKNSLYLQMNSLRAEDTAVYICAREFGKRYALDYWGQGTTVTVSS VL: DIQMTQSPSSLSASVGDRVTITCKASQDVTPAVAWYQQKPGKAPKLLIYSTSSRYTGVPSRFSGSGSGTDFTLTISSLQPEDFATYYCQQHYTTPLTFGQGTKLEIKR with TOP of 90% or above?
Ans: TRUE
